# assayExplanation: Plasma concentration in rat administered as iv cassette dose
# Type: ADME, organism-based
# reportedConditions: in vivo
Item-by-item account of log10 of Cp
recordedMetric: log10 of Cp (log10 of the value in ng/mL)

[
  {
    "smilesRepr": "O=C(NC1CC(F)(F)C1)c1nsc2cc(Nc3n[nH]c4nccnc34)ccc12",
    "log10 of Cp": 2.84
  },
  {
    "smilesRepr": "CC(C)(C)Cc1noc2cc(Nc3n[nH]c4nccnc34)ccc12",
    "log10 of Cp": 1.78
  },
  {
    "smilesRepr": "CN(C(=O)c1nsc2cc(Nc3n[nH]c4cccnc34)ccc12)C1CC(F)(F)C1",
    "log10 of Cp": 2.71
  },
  {
    "smilesRepr": "O=C(NC1CC(F)(F)C1)c1nsc2cc(Nc3n[nH]c4cccnc34)ccc12",
    "log10 of Cp": 2.45
  },
  {
    "smilesRepr": "c1cnc2c(Nc3ccc4c(C5CCCC5)noc4c3)n[nH]c2n1",
    "log10 of Cp": 2.07
  },
  {
    "smilesRepr": "O=C(c1nsc2cc(Nc3n[nH]c4cccnc34)ccc12)N1CCC(F)(F)CC1",
    "log10 of Cp": 2.40
  }
]

###

# measuredTarget: Metabotropic glutamate receptor 4 (Rattus norvegicus)
# Sequence (P31423 whole entry): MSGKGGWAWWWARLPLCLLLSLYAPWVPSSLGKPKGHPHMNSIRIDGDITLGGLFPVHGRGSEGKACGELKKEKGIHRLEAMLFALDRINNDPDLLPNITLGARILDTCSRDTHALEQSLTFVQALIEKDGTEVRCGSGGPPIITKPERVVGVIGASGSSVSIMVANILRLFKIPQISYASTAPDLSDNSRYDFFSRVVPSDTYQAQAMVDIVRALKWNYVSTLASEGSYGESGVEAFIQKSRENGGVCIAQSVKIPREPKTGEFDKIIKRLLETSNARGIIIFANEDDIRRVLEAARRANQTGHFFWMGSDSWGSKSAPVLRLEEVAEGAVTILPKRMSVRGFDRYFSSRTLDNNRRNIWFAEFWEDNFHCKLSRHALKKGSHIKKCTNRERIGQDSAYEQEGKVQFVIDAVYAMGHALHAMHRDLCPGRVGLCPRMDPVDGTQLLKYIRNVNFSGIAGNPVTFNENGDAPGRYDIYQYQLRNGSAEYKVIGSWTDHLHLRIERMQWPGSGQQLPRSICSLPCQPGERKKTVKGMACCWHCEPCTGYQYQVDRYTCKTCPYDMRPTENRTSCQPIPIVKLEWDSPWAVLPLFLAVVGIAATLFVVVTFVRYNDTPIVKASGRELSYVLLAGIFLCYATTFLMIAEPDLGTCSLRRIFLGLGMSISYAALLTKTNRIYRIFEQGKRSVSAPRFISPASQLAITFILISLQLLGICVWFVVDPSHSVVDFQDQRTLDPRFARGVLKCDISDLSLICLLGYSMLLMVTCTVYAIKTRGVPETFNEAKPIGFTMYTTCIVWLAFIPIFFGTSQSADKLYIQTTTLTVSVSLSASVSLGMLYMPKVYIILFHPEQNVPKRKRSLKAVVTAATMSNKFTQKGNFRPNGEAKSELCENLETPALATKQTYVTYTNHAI
# assayExplanation: Positive allosteric modulation of rat mGlu4 receptor expressed in HEK cells co-expressing GIRK1/2 assessed as increase in glutamate-induced thallium flux preincubated for 140 secs followed by glutamate addition and measured after 2.5 mins by FluoZin-2-AM dye based fluorescence assay
Item-by-item account of EC50
recordedMetric: EC50 (µM)

[
  {
    "smilesRepr": "O=C(NC1CC(F)(F)C1)c1nsc2cc(Nc3n[nH]c4nccnc34)ccc12",
    "recordedNumber": 0.0822
  },
  {
    "smilesRepr": "CC(C)(C)Cc1nsc2cc(Nc3n[nH]c4nccnc34)cnc12",
    "recordedNumber": 0.158
  },
  {
    "smilesRepr": "O=C(c1nsc2cc(Nc3n[nH]c4cccnc34)ccc12)N1CCC(F)(F)CC1",
    "recordedNumber": 0.139
  },
  {
    "smilesRepr": "Cc1noc2ccc(Nc3n[nH]c4ncccc34)cc12",
    "recordedNumber": 0.209
  },
  {
    "smilesRepr": "Cc1noc2c(F)cc(Nc3n[nH]c4ncccc34)cc12",
    "recordedNumber": 0.169
  },
  {
    "smilesRepr": "Cc1noc2ccc(Nc3n[nH]c4cccnc34)cc12",
    "recordedNumber": 0.0955
  }
]

###

# measuredTarget: Metabotropic glutamate receptor 4 (Rattus norvegicus) (UniProt P31423)
# Sequence (P31423 whole entry): as above
# assayExplanation: Positive allosteric modulation of rat mGlu4 receptor expressed in HEK cells co-expressing GIRK1/2 assessed as increase in glutamate-induced thallium flux preincubated for 140 secs followed by glutamate addition and measured after 2.5 mins by FluoZin-2-AM dye based fluorescence assay relative to control
# Assay type: cell-based
Item-by-item account of %max

[
  {
    "smilesRepr": "c1cnc2c(Nc3ccc4c(C5CCCC5)noc4c3)n[nH]c2c1",
    "measuredTarget": "Metabotropic glutamate receptor 4 (Rattus norvegicus) (UniProt P31423)",
    "%max / %": 97.9
  },
  {
    "smilesRepr": "Cc1noc2ccc(Nc3n[nH]c4ncccc34)cc12",
    "measuredTarget": "Metabotropic glutamate receptor 4 (Rattus norvegicus) (UniProt P31423)",
    "%max / %": 108
  },
  {
    "smilesRepr": "CC(C)(C)Cc1noc2cc(Nc3n[nH]c4cccnc34)ccc12",
    "measuredTarget": "Metabotropic glutamate receptor 4 (Rattus norvegicus) (UniProt P31423)",
    "%max / %": 84.8
  },
  {
    "smilesRepr": "O=C(c1nsc2cc(Nc3n[nH]c4cccnc34)ccc12)N1CCC(F)(F)CC1",
    "measuredTarget": "Metabotropic glutamate receptor 4 (Rattus norvegicus) (UniProt P31423)",
    "%max / %": 103
  },
  {
    "smilesRepr": "CC(C)(C)Cc1noc2cc(Nc3n[nH]c4nccnc34)ccc12",
    "measuredTarget": "Metabotropic glutamate receptor 4 (Rattus norvegicus) (UniProt P31423)",
    "%max / %": 98.7
  }
]

###

# assayExplanation: Volume of distribution at steady state in rat administered as iv cassette dose
# Format: ADME, organism-based
# reportedConditions: in vivo, read-out: Vdss
recordedMetric: Vd (L/kg)

[
  {
    "smilesRepr": "Cc1noc2c(F)cc(Nc3n[nH]c4ncccc34)cc12",
    "recordedNumber": 1.2
  },
  {
    "smilesRepr": "O=C(NC1CC(F)(F)C1)c1nsc2cc(Nc3n[nH]c4cccnc34)ccc12",
    "recordedNumber": 1.6
  },
  {
    "smilesRepr": "Cc1noc2c(F)cc(Nc3n[nH]c4cccnc34)cc12",
    "recordedNumber": 3.1
  },
  {
    "smilesRepr": "Cc1noc2ccc(Nc3n[nH]c4cc(F)cnc34)cc12",
    "recordedNumber": 2
  },
  {
    "smilesRepr": "Cc1noc2ccc(Nc3n[nH]c4ncccc34)cc12",
    "recordedNumber": 2.5
  },
  {
    "smilesRepr": "Cc1noc2ccc(Nc3n[nH]c4nccnc34)cc12",
    "recordedNumber": 0.9
  }
]

###

# assayExplanation: Clearance in rat administered as iv cassette dose
# Type: ADME, organism-based
# reportedConditions: in vivo
recordedMetric: log10(clearance) (log10 of the value in mL/min/kg)

[
  {
    "smilesRepr": "Cc1noc2ccc(Nc3n[nH]c4ncccc34)cc12",
    "log10(clearance)": 1.58
  },
  {
    "smilesRepr": "c1cnc2c(Nc3ccc4c(C5CCCC5)noc4c3)n[nH]c2c1",
    "log10(clearance)": 1.79
  },
  {
    "smilesRepr": "Cc1noc2ccc(Nc3n[nH]c4nccnc34)cc12",
    "log10(clearance)": 1.39
  },
  {
    "smilesRepr": "CC(C)(C)Cc1noc2cc(Nc3n[nH]c4cccnc34)ccc12",
    "log10(clearance)": 1.64
  },
  {
    "smilesRepr": "Cc1noc2c(F)cc(Nc3n[nH]c4cccnc34)cc12",
    "log10(clearance)": 1.91
  },
  {
    "smilesRepr": "O=C(NC1CC(F)(F)C1)c1nsc2cc(Nc3n[nH]c4cccnc34)ccc12",
    "log10(clearance)": 0.49
  },
  {
    "smilesRepr": "CC(C)(C)Cc1noc2cc(Nc3n[nH]c4nccnc34)ccc12",
    "log10(clearance)": 1.58
  },
  {
    "smilesRepr": "Cc1noc2ccc(Nc3n[nH]c4cc(F)cnc34)cc12",
    "log10(clearance)": 1.81
  },
  {
    "smilesRepr": "CC(F)(F)c1noc2cc(Nc3n[nH]c4cccnc34)ccc12",
    "log10(clearance)": 1.44
  },
  {
    "smilesRepr": "c1cnc2c(Nc3ccc4c(C5CCCC5)noc4c3)n[nH]c2n1",
    "log10(clearance)": 1.37
  },
  {
    "smilesRepr": "Cc1noc2c(F)cc(Nc3n[nH]c4ncccc34)cc12",
    "log10(clearance)": 1.48
  }
]

###

# assayExplanation: Intrinsic clearance in rat liver microsomes at 1 uM preincubated for 5 mins followed by NADPH addition measured up to 45 mins by LC-MS/MS analysis
# Format: ADME, Microsome
# reportedConditions: read-out: CLH
I would appreciate it if you labelled entries TRUE when CLint scaled at 1 µM is 10 mL/min/kg or higher, otherwise FALSE.

[
  {
    "smilesRepr": "CCc1nsc2cc(Nc3n[nH]c4cccnc34)ccc12",
    "qualitativeLabel": "TRUE"
  },
  {
    "smilesRepr": "Cc1noc2ccc(Nc3n[nH]c4ncccc34)cc12",
    "qualitativeLabel": "TRUE"
  },
  {
    "smilesRepr": "Cc1noc2ccc(Nc3n[nH]c4nccnc34)cc12",
    "qualitativeLabel": "FALSE"
  },
  {
    "smilesRepr": "c1cnc2c(Nc3ccc4c(C5CCCC5)noc4c3)n[nH]c2n1",
    "qualitativeLabel": "TRUE"
  },
  {
    "smilesRepr": "CC(F)(F)c1noc2cc(Nc3n[nH]c4cccnc34)ccc12",
    "qualitativeLabel": "TRUE"
  }
]

###

# assayExplanation: Cmax in rat at 15 mg/kg, po qd for 4 days measured on day 1 post dose
# reportedConditions: in vivo

[
  {
    "smilesRepr": "CC(C)(C)Cc1noc2cc(Nc3n[nH]c4nccnc34)ccc12",
    "valueUnit": "ng/mL",
    "Cmax": 86.3
  }
]

###

# assayExplanation: AUC in rat at 15 mg/kg, po qd for 4 days measured on day 4 post dose
# reportedConditions: in vivo
recordedMetric: AUC at 96 h (ng·h/mL)

[
  {
    "smilesRepr": "CC(C)(C)Cc1noc2cc(Nc3n[nH]c4nccnc34)ccc12",
    "recordedNumber": 690
  }
]

Hey, just so you know, these numbers are from ChEMBL document CHEMBL4308847.
